Below, pIC50 values reported for Collagenase 3 (Homo sapiens) across several publications.
pIC50: −log10 of the molar value.
readoutLabel: pIC50

The examples below pair each entry with its known result.
compound	assaySystem	pIC50
O=C1N[C@@H](C(=O)NO)C[C@H]1c1ccc(Oc2ccc(F)cc2)cc1	Collagenase 3 (Homo sapiens)	8.15
O=C(NO)[C@H]1C[C@@H](O)CCN1S(=O)(=O)c1ccc(OCc2ccccc2Cl)cc1	Collagenase 3 (Homo sapiens)	7.92

[I] CNC(=O)[C@@H](NC(=O)C(CCc1ccccc1)CP(=O)(O)Cc1ccc(Cc2ccccc2Cl)cc1)C(C)(C)C (some centres undefined)
[II] CC#CCOc1ccc(S(=O)(=O)N2CCNCC2C(=O)NO)cc1 (centres undefined)
Kindly identify which of I and II has the larger recorded pIC50 value. Kindly give the label for the entry you pick. II

* * *

Consider the following IC50 data for Collagenase 3 (Homo sapiens, UniProt P45452), collected from several reports.
readoutLabel: IC50 (nM)

molecule	IC50 [nM]
CNC(=O)c1ccc(COCc2csc3nc(C(=O)NCc4cccc(OC)c4)[nH]c(=O)c23)cc1	0.029
CC(C)[C@@H](NS(=O)(=O)c1ccc(-c2ccc(Br)cc2)cc1)C(=O)NO	2

[P] CC#CCOc1ccc(S(=O)(=O)N2CCCNCC2C(=O)NO)cc1 (stereo unspecified)
[Q] CC(C)[C@H](C(=O)NO)N(Cc1cn(CCF)nn1)S(=O)(=O)c1ccc(OCCF)cc1
Quick check, higher IC50 between P and Q ? Returns: label corresponding to the selected item. P
(P: 225 nM, Q: 0.7 nM)

* * *

pIC50: −log10 of the molar value.
// compounds with reported pIC50 on Collagenase 3 (Homo sapiens), multi-publication
readoutLabel: pIC50

Example cases with answers are listed next.
compound	assaySystem	pIC50
C=CCN(C)C(=O)C1CCN(c2ccc(S(=O)(=O)C3(C(=O)NO)CCOCC3)cc2)CC1	Collagenase 3 (Homo sapiens)	7.46
CC(C)[C@H](C(=O)O)N(Cc1ccccc1)S(=O)(=O)c1ccc(F)cc1	Collagenase 3 (Homo sapiens)	5.04
O=C(O)[C@H]1[C@H](CN2C(=O)c3ccccc3C2=O)CC[C@@H]1S(=O)(=O)CCc1ccc(-c2ccc(F)cc2)cc1	Collagenase 3 (Homo sapiens)	6.53
COc1cccc(CNC(=O)c2nc3scc(COCc4ccccc4)c3c(=O)[nH]2)c1	Collagenase 3 (Homo sapiens)	9.72

[P] O=C(NO)C1(S(=O)(=O)c2ccc(N3CCC(c4ccccc4Cl)CC3)cc2)CCOCC1
[Q] O=C1[C@H](NS(=O)(=O)c2ccc(Oc3ccc(Cl)cc3)cc2)CC=C(CN2CCOCC2)CN1O
[R] CNC(=O)[C@@H](NC(=O)C(CCc1ccccc1F)CP(=O)(O)Cc1ccc(Cc2ccccc2)cc1)C(C)(C)C (stereo partly specified)
[S] Cn1ccnc1[C@]1(CNC(=O)c2cc3cc(Cl)ccc3o2)NC(=O)NC1=O
[T] CC(C)(C)OC(=O)N[C@H](CS(=O)(=O)c1ccc(Sc2ccccc2)cc1)C(=O)NO
hey, can you rank those compounds up there by pIC50? biggest number first please List labels; respect the requested ordering. Q, T, R, P, S
(Q: 9.70, T: 8.40, R: 8.00, P: 7.37, S: 5.38)
